- Tested on: E. coli ATCC 25922
- Format: cell-based, Escherichia coli
- experimental.parameters: ATCC 25922, 24 h
measured.attribute: MIC, E. coli 25922

INSERT INTO measurements (smiles_record, measured_attribute, measured_result) VALUES
  ('CC(C)NC(=O)N[C@H](CNC(=O)N[C@H](CNC(=O)N[C@H](CNC(=O)N[C@H](CNC(=O)N[C@@H](CCCNC(=N)N)CNC(=O)N[C@H](CNC(=O)N[C@@H](CCCNC(=N)N)CNC(=O)N[C@H](CCC(N)=O)C(C)C)Cc1c[nH]c2ccccc12)C(C)C)Cc1c[nH]c2ccccc12)Cc1c[nH]cn1)C(C)C', 'MIC, E. coli 25922', '4.3 μΜ'),
  ('CC(C)[C@H](N)CNC(=O)N[C@H](CNC(=O)N[C@H](CNC(=O)N[C@H](CNC(=O)N[C@@H](CCCNC(=N)N)CNC(=O)N[C@H](CNC(=O)N[C@@H](CCCNC(=N)N)CNC(=O)N[C@H](CCC(N)=O)C(C)C)Cc1c[nH]c2ccccc12)C(C)C)Cc1c[nH]c2ccccc12)Cc1c[nH]cn1', 'MIC, E. coli 25922', '9.14 μΜ'),
  ('CC(C)NC(=O)N[C@H](CNC(=O)N[C@@H](CCCNC(=N)N)CNC(=O)N[C@H](CNC(=O)N[C@H](CNC(=O)N[C@@H](CCCNC(=N)N)CNC(=O)N[C@H](CNC(=O)N[C@@H](CCCNC(=N)N)CNC(=O)N[C@H](CCC(N)=O)C(C)C)Cc1c[nH]c2ccccc12)C(C)C)Cc1c[nH]c2ccccc12)C(C)C', 'MIC, E. coli 25922', '4.25 μΜ'),
  ('CC(C)NC(=O)N[C@H](CNC(=O)N[C@H](CNC(=O)N[C@H](CNC(=O)N[C@H](CNC(=O)N[C@H](CNC(=O)N[C@H](CNC(=O)N[C@@H](CCCNC(=N)N)CNC(=O)N[C@H](CCC(N)=O)C(C)C)Cc1c[nH]c2ccccc12)Cc1c[nH]cn1)C(C)C)Cc1c[nH]c2ccccc12)Cc1c[nH]cn1)C(C)C', 'MIC, E. coli 25922', '8.7 μΜ');
